# tested on: Sortilin (Homo sapiens)
# Sequence (Q99523 whole entry): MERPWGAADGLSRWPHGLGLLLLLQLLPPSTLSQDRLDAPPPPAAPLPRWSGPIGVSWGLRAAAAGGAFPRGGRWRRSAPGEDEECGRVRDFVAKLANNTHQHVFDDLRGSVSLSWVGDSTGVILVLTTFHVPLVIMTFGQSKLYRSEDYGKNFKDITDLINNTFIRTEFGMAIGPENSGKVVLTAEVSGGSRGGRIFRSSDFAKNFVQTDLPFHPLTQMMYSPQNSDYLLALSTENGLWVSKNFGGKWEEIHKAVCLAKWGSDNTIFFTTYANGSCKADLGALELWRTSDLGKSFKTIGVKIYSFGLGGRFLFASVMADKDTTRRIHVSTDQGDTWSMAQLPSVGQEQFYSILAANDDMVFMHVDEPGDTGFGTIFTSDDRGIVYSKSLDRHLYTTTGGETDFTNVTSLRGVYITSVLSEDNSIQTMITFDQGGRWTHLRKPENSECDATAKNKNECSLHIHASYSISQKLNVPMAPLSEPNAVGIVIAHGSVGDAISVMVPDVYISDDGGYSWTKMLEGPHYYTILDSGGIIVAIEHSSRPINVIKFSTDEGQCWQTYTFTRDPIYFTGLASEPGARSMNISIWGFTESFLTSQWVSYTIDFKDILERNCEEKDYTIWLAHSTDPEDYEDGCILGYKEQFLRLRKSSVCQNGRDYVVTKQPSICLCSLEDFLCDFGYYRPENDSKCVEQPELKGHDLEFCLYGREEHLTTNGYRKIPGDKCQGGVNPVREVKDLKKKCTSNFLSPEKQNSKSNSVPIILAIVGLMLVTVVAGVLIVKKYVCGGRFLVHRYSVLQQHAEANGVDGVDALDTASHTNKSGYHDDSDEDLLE
So basically: is IC50 under 700 nM? Then Condition met. Not under? Then Condition not met.

Worked examples follow.
compound: C[C@@H](N[C@@H](CCC(C)(C)C)C(=O)O)c1cccc2c1ccn2C
class: Condition met
--
compound: CC(C)(C)CC[C@H](NCc1cc2ccccc2[nH]1)C(=O)O
class: Condition met
--
compound: CC(C)(C)CC[C@H](NCc1cccc(C#N)c1)C(=O)O
class: Condition not met
--
compound: COC1C=C(CN[C@@H](CCC(C)(C)C)C(=O)O)C=NC1 (stereo partly specified)
class: Condition met

Now look at this one.
Prompt line: Dear reviewer, please state whether CC(C)(C)CC[C@H](NCC1=CC(Cl)CC(Cl)=C1)C(=O)O (stereo partly specified) has IC50 strictly beneath 700 nM.
Response line: Condition not met
